biological target: human ether-à-go-go-related gene (hERG) potassium channel (human); experiment: primary screen, population patch clamp on CHO cells stably expressing hERG; higher = less effect of the substance;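 further: peak tail current of the secondary pulse compared with the same well before compound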
Sequence (Q12809 whole entry, looked up): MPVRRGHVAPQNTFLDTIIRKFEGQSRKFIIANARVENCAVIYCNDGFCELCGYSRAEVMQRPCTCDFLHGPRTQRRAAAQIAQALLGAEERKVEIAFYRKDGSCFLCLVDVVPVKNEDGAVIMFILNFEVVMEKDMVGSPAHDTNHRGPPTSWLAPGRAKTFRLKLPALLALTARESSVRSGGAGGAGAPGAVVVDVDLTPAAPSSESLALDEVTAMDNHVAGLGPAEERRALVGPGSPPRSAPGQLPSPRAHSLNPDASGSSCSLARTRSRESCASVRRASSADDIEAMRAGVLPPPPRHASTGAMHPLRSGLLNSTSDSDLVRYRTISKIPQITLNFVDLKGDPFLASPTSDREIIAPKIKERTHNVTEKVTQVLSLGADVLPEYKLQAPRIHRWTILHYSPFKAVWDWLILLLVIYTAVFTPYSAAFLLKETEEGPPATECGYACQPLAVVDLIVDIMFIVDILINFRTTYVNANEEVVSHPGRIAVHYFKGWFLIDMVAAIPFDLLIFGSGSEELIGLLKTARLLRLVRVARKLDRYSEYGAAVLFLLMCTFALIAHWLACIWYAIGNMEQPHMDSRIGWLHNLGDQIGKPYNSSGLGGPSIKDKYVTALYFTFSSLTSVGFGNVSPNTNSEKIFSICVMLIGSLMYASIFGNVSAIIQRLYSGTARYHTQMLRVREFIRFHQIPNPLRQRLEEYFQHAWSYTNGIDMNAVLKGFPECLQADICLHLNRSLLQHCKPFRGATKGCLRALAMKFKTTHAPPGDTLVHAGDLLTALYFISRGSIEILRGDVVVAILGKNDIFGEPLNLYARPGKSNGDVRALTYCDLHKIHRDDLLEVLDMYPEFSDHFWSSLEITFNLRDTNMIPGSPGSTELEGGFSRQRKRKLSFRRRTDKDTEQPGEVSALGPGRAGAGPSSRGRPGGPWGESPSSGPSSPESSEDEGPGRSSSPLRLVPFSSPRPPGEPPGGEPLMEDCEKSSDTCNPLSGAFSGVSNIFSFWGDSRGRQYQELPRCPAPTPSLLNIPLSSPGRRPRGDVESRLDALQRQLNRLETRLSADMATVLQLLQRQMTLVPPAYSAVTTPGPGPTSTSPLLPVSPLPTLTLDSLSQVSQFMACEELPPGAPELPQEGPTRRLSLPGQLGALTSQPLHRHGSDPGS
In all, about 310,000 compounds went through this assay and about 14,000 (4.5%) showed an effect of 50% or more. The effect is printed as a negative number. Shown is part of a subset that was picked to be rich in strong results.
Rule: hERG current change (%, negative = inhibition) at 10uM of -30% or more gives class 1; anything lower gives class 0.

MOLECULE	CATEGORY LABEL
COc1ccccc1NC(=O)C1CCCN(S(=O)(=O)c2ccc(-n3cnnn3)cc2)C1 (centres unmarked)	class 0
COc1cccc(CNCc2cccnc2)c1OCc1ccccc1.Cl	class 1
O=C(NCCc1c[nH]c2ccccc12)/C(=C\c1cccnc1)NC(=O)c1ccco1	class 0
COc1ccccc1C(=O)n1nc(-c2ccccc2)nc1N	class 1
CNCc1ccc(OCc2ccccc2)c(OC)c1	class 1
COc1cc(CNC(=O)C2CC2)ccc1OCc1ccccc1	class 1
CC(C)CCNC(=O)C1CCCN(S(=O)(=O)c2ccc(-n3cnnn3)cc2)C1 (centres unmarked)	class 1
O=C(NCc1ccco1)C1CCN(S(=O)(=O)c2ccc(-n3cnnn3)cc2)CC1	class 0
CCCc1nn(C)c2c(=O)[nH]c(-c3cc(S(=O)(=O)Nc4ccc(NC(C)=O)cc4)ccc3OCC)nc12	class 1
COc1ccc(C(=O)COc2ccc3c(C)cc(=O)oc3c2)cc1	class 1
Cc1cc(=O)oc2cc(OCC(=O)c3ccccc3)ccc12	class 1
Cc1cc(=O)oc2cc(OCC(=O)NC3CC(C)(C)NC(C)(C)C3)ccc12	class 0
O=C(NCC1CC1)C1CCCN(S(=O)(=O)c2ccc(-n3cnnn3)cc2)C1 (centres unmarked)	class 0
Cc1cc(=O)oc2cc(OCC(=O)NC3CCCC3)ccc12	class 0
COc1cccc(CNC23CC4CC(CC(C4)C2)C3)c1OCc1ccccc1.Cl	class 0
COc1ccc(OC)c(NC(=O)C2CCCN(S(=O)(=O)c3ccc(-n4cnnn4)cc3)C2)c1 (centres unmarked)	class 1
Cc1cc(=O)oc2cc(OCC(=O)OCC(=O)NC3CC3)ccc12	class 1
NC(=O)CNC(=O)C1CCN(S(=O)(=O)c2ccc(-n3cnnn3)cc2)CC1	class 0
O=C(NCc1ccccc1)C1CCCN(S(=O)(=O)c2ccc(-n3cnnn3)cc2)C1 (centres unmarked)	class 1
COc1cc(CNC23CC4CC(CC(C4)C2)C3)ccc1OCc1ccccc1.Cl	class 0

* * *

hERG current change (%, negative = inhibition) at 10uM listing for selected compounds.
biological target: human ether-à-go-go-related gene (hERG) potassium channel (human); experiment: primary screen, population patch clamp on CHO cells stably expressing hERG; higher = less effect of the substance;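 further: peak tail current of the secondary pulse compared with the same well before compound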
About 14,000 (4.5%) of roughly 310,000 compounds showed an effect of 50% or more. Effects have a minus sign here. The entries come from a sample that favours strong results as a whole.
REPORTED METRIC: hERG current change (%, negative = inhibition) at 10uM (%)

COMPOUND	MEASURED VALUE
Cc1cc2oc(=O)cc(CN3CCN(C/C=C/c4ccccc4)CC3)c2cc1O	-80.9
Cc1sc2ncnc(N3CCC(C(=O)NNC(=O)c4ccc(F)cc4)CC3)c2c1C	-21.9
Nc1nc(SCCO)[nH]c(=O)c1NC(=O)c1ccc(Br)o1	23.8
CN1CCN(C(CNS(=O)(=O)c2cccs2)c2cccnc2)CC1 (stereo not shown)	-21.4
CC[C@H]1OC(=O)[C@H](C)[C@@H](O[C@H]2C[C@@](C)(OC)[C@@H](O)[C@H](C)O2)[C@H](C)[C@@H](O[C@@H]2O[C@H](C)C[C@H](N(C)C)[C@H]2O)[C@](C)(O)C[C@@H](C)CN(C)[C@H](C)[C@@H](O)[C@]1(C)O	1.55
N#CCCN1CCN(C2=NC(=O)/C(=C\c3cccs3)S2)CC1	-52.4
O=C1N=C(N2CCN(Cc3ccccc3)CC2)S/C1=C/c1cccs1	-41.1
C=CCNC(=O)c1cc(-c2cccnc2)nc2ccccc12	-34.7
Cc1cc(Cl)ccc1OCC(=O)NNC(=O)C1CCN(c2ncnc3sc(C)c(C)c23)CC1	5.64
Cc1ccc(C)c(C(C)NC(=O)C2CCCO2)c1 (stereo not shown)	17.6
Cc1nc2ccccc2c(=O)n1/N=C/c1ccccn1	-3.77
CCOc1ccccc1NC(=O)C1CCN(c2ccc(S(=O)(=O)N3CCCC3)cc2)CC1	-6.65
Cc1cccc(OCC(=O)NNC(=O)C2CCN(c3ncnc4sc(C)c(C)c34)CC2)c1	-48.2
Cc1cc(C#N)c(C)n1-c1cc(S(=O)(=O)N2CCOCC2)ccc1N1CCCC1	-14.3
Cc1c(O)ccc2c(CN3CCN(C/C=C/c4ccccc4)CC3)cc(=O)oc12	-64.1
CCCc1cc(=O)oc2cc(C)c3c(C)coc3c12	5.51
O=C1N=C(N2CCOCC2)S/C1=C/c1cccs1	-5.52
CCc1ccc(OCC(=O)NNC(=O)C2CCN(c3ncnc4sc(C)c(C)c34)CC2)cc1	-45.3
Cc1c(O)ccc2c(CN(C)Cc3ccccc3)cc(=O)oc12	10.2

* * *

target: human ether-à-go-go-related gene (hERG) potassium channel (human); test: primary screen, population patch clamp on CHO cells stably expressing hERG; higher = less effect of the substance;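 further: peak tail current of the secondary pulse compared with the same well before compound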
About 14,000 (4.5%) of roughly 310,000 compounds showed an effect of 50% or more. The effect is printed as a negative number. Only a selection was taken, and strong results are over-represented in it overall.
hERG current change (%, negative = inhibition) at 10uM of -10% or higher: true. Under -10%: false.

COMPOUND	CATEGORY LABEL
CCC(Oc1ccccc1)C(=O)NC1CCCCCC1 (stereo not shown)	true
O=C(CNS(=O)(=O)c1ccc(F)cc1)N1CCN(c2ccccc2)CC1	false
O=C(CNS(=O)(=O)c1ccc(F)cc1)N1CCN(c2ccc(F)cc2)CC1	false
O=C(CN1C(=O)NC2(CCc3ccccc32)C1=O)NCc1ccccc1Cl (stereo not shown)	true
Cc1cc(NC(=O)CSc2ccc3c(c2)OCCO3)no1	true
COc1ccc(-c2nnc3sc(-c4ccccn4)nn23)cc1	false
O=C(CNS(=O)(=O)c1ccc(Br)cc1)N1CCN(c2ccc(F)cc2)CC1	false
C=CCc1cc(OC)ccc1OCC(O)CN1CCN(c2ccc(OC)cc2)CC1.Cl (stereo not shown)	false
Cc1ccc(CN(C)C(=O)c2ccc3c(c2)NC(=O)CS3)o1	false

* * *

target: human ether-à-go-go-related gene (hERG) potassium channel (human); assay: primary screen, population patch clamp on CHO cells stably expressing hERG; higher = less effect of the substance;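 further: peak tail current of the secondary pulse compared with the same well before compound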
Screen size: about 310,000 compounds; about 14,000 (4.5%) showed an effect of 50% or more. Effects have a minus sign here. Shown is part of a subset that was picked to be rich in strong results.
Short version: hERG current change (%, negative = inhibition) at 10uM at least -20% is yes (1), less is no (0).

COMPOUND	TARGET ENTITY	CATEGORY LABEL
Cc1ccc(C(=O)Nc2ccc(N3CCOCC3)cc2)cc1S(=O)(=O)N1CCCCC1	human ether-à-go-go-related gene (hERG) potassium channel (human)	yes (1)
Cc1ccc(-c2noc(CN(C(=O)CCCN3C(=O)c4ccccc4C3=O)C(C)C)n2)cc1	human ether-à-go-go-related gene (hERG) potassium channel (human)	no (0)
Cc1cc(C)cc(NC(=S)Nc2ccccn2)c1	human ether-à-go-go-related gene (hERG) potassium channel (human)	yes (1)
C=CCc1cc(C=O)cc(OCC)c1OCc1ccc(Cl)cc1	human ether-à-go-go-related gene (hERG) potassium channel (human)	yes (1)
CCC1CCCCN1C(=S)NCc1ccccc1 (stereo not shown)	human ether-à-go-go-related gene (hERG) potassium channel (human)	yes (1)
C/C(=N\OCC(=O)Nc1ccccc1C(C)(C)C)c1ccc2c(c1)OCCO2	human ether-à-go-go-related gene (hERG) potassium channel (human)	yes (1)
CCOC(=O)C(C)Oc1ccc(OCc2ccccc2)cc1 (stereo not shown)	human ether-à-go-go-related gene (hERG) potassium channel (human)	yes (1)
COc1cccc(N2C(=O)CC(N3CCc4ccccc4C3)C2=O)c1 (stereo not shown)	human ether-à-go-go-related gene (hERG) potassium channel (human)	yes (1)
Cc1ccc(C(=O)N2CCN=C2SCc2ccc([N+](=O)[O-])cc2)cc1C	human ether-à-go-go-related gene (hERG) potassium channel (human)	yes (1)
Cc1cccc(N(Cc2ccccc2)C(=O)CSC(C)C(=O)Nc2cc(C)on2)c1 (stereo not shown)	human ether-à-go-go-related gene (hERG) potassium channel (human)	no (0)
O=C(c1cc2nc(-c3ccccc3)cc(-c3ccccc3)n2n1)N1CCC2(CC1)OCCO2	human ether-à-go-go-related gene (hERG) potassium channel (human)	no (0)
CC(NC(=O)/C=C/c1cnc2ccccc2n1)C12CC3CC(CC(C3)C1)C2 (stereo not shown)	human ether-à-go-go-related gene (hERG) potassium channel (human)	yes (1)
O=C1CC2C(=O)NCCN2C(=NC(=O)c2ccc(Cl)cc2)N1 (stereo not shown)	human ether-à-go-go-related gene (hERG) potassium channel (human)	yes (1)
CCOC(=O)N1CCN(CC(O)COc2ccc(CC)cc2)CC1.Cl (stereo not shown)	human ether-à-go-go-related gene (hERG) potassium channel (human)	no (0)
CNS(=O)(=O)c1cc(O)c2c(S(=O)(=O)NC)cccc2c1	human ether-à-go-go-related gene (hERG) potassium channel (human)	yes (1)
Cc1ccc(-c2noc(CN(C(=O)CCCCCN3C(=O)c4ccccc4C3=O)C(C)C)n2)cc1	human ether-à-go-go-related gene (hERG) potassium channel (human)	yes (1)
CCN(CC)CCCN1C(=O)CSC1c1ccc2c(c1)OCO2.Cl (stereo not shown)	human ether-à-go-go-related gene (hERG) potassium channel (human)	no (0)
CCOC(=O)N1CCN(CC(O)COc2cc(C)cc(C)c2)CC1.Cl (stereo not shown)	human ether-à-go-go-related gene (hERG) potassium channel (human)	yes (1)
CCOC(=O)C1CCN(Cc2ccc(Cl)c(Cl)c2)CC1	human ether-à-go-go-related gene (hERG) potassium channel (human)	yes (1)
O=C(NC1CCCCC1)c1ccc(S(=O)(=O)c2ccccc2Cl)c([N+](=O)[O-])c1	human ether-à-go-go-related gene (hERG) potassium channel (human)	yes (1)
Cc1ccc(CSC2=NCCN2C(=O)c2ccc([N+](=O)[O-])cc2)cc1	human ether-à-go-go-related gene (hERG) potassium channel (human)	no (0)
CCOC(=O)C1CCN(Cc2cc(C(C)(C)C)c(O)c(C(C)(C)C)c2)CC1	human ether-à-go-go-related gene (hERG) potassium channel (human)	no (0)
CCc1ccc(Nc2nc(N3CCOCC3)nc(N3CCOCC3)n2)cc1.Cl	human ether-à-go-go-related gene (hERG) potassium channel (human)	yes (1)
CN(C)c1ccc(NC(=O)c2cccc([N+](=O)[O-])c2)c2ccccc12	human ether-à-go-go-related gene (hERG) potassium channel (human)	yes (1)
CC(C)(C)c1cc(CN2CCC(O)CC2)cc(C(C)(C)C)c1O	human ether-à-go-go-related gene (hERG) potassium channel (human)	no (0)
O=C(c1cccc2ccccc12)N1CCN=C1SCc1ccc([N+](=O)[O-])cc1	human ether-à-go-go-related gene (hERG) potassium channel (human)	yes (1)
CCn1c(CNC(=O)c2ccccc2Br)nnc1SCC(=O)Nc1nncs1	human ether-à-go-go-related gene (hERG) potassium channel (human)	yes (1)
O=C(CNC(=O)c1ccc(OC(F)F)cc1)NCC1CCCO1 (stereo not shown)	human ether-à-go-go-related gene (hERG) potassium channel (human)	yes (1)
CC1=NN(Cc2cc(C(C)(C)C)c(O)c(C(C)(C)C)c2)C(=O)C1	human ether-à-go-go-related gene (hERG) potassium channel (human)	yes (1)
Cc1ccc(C)c(CSC2=NCCN2C(=O)Cc2ccc([N+](=O)[O-])cc2)c1	human ether-à-go-go-related gene (hERG) potassium channel (human)	yes (1)
NS(=O)(=O)c1ccc(CCNC(=O)CN2C(=O)c3ccccc3S2(=O)=O)cc1	human ether-à-go-go-related gene (hERG) potassium channel (human)	yes (1)
COc1ccc(-c2cc(=O)oc3cc(OC(C)C(=O)O)ccc23)cc1 (stereo not shown)	human ether-à-go-go-related gene (hERG) potassium channel (human)	yes (1)
CCO[C@@H]1OC(C(=O)NCc2ccccc2)=C[C@H](C(C)(C)C)[C@H]1CCCO	human ether-à-go-go-related gene (hERG) potassium channel (human)	yes (1)
Cc1cc(NC(=O)C(C)SCC(=O)OCC(=O)N(Cc2ccccc2)C(C)(C)C)no1 (stereo not shown)	human ether-à-go-go-related gene (hERG) potassium channel (human)	no (0)
CCN1CCN(Cc2cc(C(C)(C)C)c(O)c(C(C)(C)C)c2)CC1	human ether-à-go-go-related gene (hERG) potassium channel (human)	no (0)
CCCc1ccc(OCC(O)CN2CCN(C(=O)OCC)CC2)cc1.Cl (stereo not shown)	human ether-à-go-go-related gene (hERG) potassium channel (human)	no (0)
COc1ccc(-c2ccnc3nc(-n4cccc4)nn23)cc1	human ether-à-go-go-related gene (hERG) potassium channel (human)	yes (1)
Cc1ccccc1C(=O)N1CCN=C1SCc1ccc([N+](=O)[O-])cc1	human ether-à-go-go-related gene (hERG) potassium channel (human)	no (0)
CCOC(=O)N1CCN(CC(O)COc2ccc(-c3ccccc3)cc2)CC1.Cl (stereo not shown)	human ether-à-go-go-related gene (hERG) potassium channel (human)	no (0)
O=C(Nc1ccccc1C(=O)Nc1ccccc1)c1cccs1	human ether-à-go-go-related gene (hERG) potassium channel (human)	yes (1)

The reported measurements were obtained from paper PMC4336329.
